system: Malme-3M; assay: NCI tumour cell line growth inhibition, 48 h
Calls of active or inactive are those of the source. Cut-off read from the data, not from the text of the source: active = GI50 up to about 1.1 µM and inactive = higher. Square brackets hold non-standard residues; d marks the D form. Peptide text beside a SMILES is read from it. * marks the point of attachment. X26 = COC1=CC(=O)N(C(=O)[C@@H](O*)C(C)C)[C@H]1Cc1ccccc1; Bn2Val = CC(C)[C@@H](C(=O)*)N(Cc1ccccc1)Cc1ccccc1; NMeV = CN[C@H](C(=O)O)C(C)C; dNMeA = CN[C@H](C)C(=O)O
Response enum: active, inactive

Here's what some known entries look like.
COC1=CC(=O)N(C(=O)[C@@H](OC(=O)[C@@H](C)N(C)C(=O)[C@@H]2CCCN2C(=O)[C@H](C(C)C)N(C)C(=O)[C@@H](NC(=O)[C@H](C(C)C)N(Cc2ccccc2)Cc2ccccc2)C(C)C)C(C)C)[C@H]1Cc1ccccc1 (Bn2Val-V[NMeV]P[dNMeA]-X26) : inactive
O=C(CCCN1CCC2(CC1)CC(=O)N(N1CCCCCC1)C2=O)c1ccccc1 : inactive
O=C1c2ccccc2C(=O)c2c(/C=C\N3CCCCC3)ccnc21 : active
COc1ccc(-c2oc3c(CC(=O)O)cccc3c(=O)c2OC)cc1 : inactive

# ---- query compound ----
Query string: Look up the recorded call for COc1ccc(C2N(c3ccc(F)c([N+](=O)[O-])c3)C(=O)N3C(c4ccc(OC)cc4)N(c4ccc(F)c([N+](=O)[O-])c4)C(=O)N23)cc1 (configuration not stated) in this test.
Result string: inactive

---

tested on: EKVX; assay: NCI tumour cell line growth inhibition, 48 h
Activity calls are given as the source filed them. Rule as the data show it: active = GI50 up to about 1.1 µM and inactive = higher.
Response enum: class 1 = active, class 0 = inactive

Here's what some known entries look like.
COC(=O)C1(C)C=CC(=O)C2(C)C1C(O)C1OC3CC(c4ccoc4)C(C)=C3C1(C)C2CC(=O)O (centres undefined) : class 0
COc1ccc(/N=C2\C(=O)C3=C(OC(C)(C)CC3)c3ccccc32)cc1 : class 1
CS(=O)(=O)C[S+]([O-])C[S+]([O-])C[S+]([O-])CC(NC(=O)CCC(N)C(=O)O)C(=O)O (centres undefined) : class 0

# ---- query molecule ----
Query string: Look up the recorded call for `Cc1c2c(cc3c1[nH]c1ccccc13)C=NCC2` in this test.
Result string: class 0

---

The following molecules are listed with their measured GI50 values.
test system: SN12C; assay: NCI tumour cell line growth inhibition, 48 h
Active and inactive are the calls of the source. Cut-off read from the data, not from the text of the source: active = GI50 up to about 1.1 µM and inactive = higher.

O=[N+]([O-])c1ccc(C[S+]([O-])Cc2ccccc2)cc1 (centres undefined) : > 100 µM (inactive)

Query string: So what does the record say about GI50 for `CCOC(=O)/C(C(=O)c1ccc([N+](=O)[O-])cc1)=C(\NS(=O)(=O)c1cc(C)c(Cl)cc1[S-])[n+]1ccc(N(C)C)cc1` ?
Result string: 61.7 µM (inactive)

Query string: So what does the record say about GI50 for `O=[N+]([O-])c1ccc(-c2noc(-c3ccccc3)c2C2=NCCN2)cc1` ?
Result string: > 100 µM (inactive)

Query string: So what does the record say about GI50 for `CCOC(=O)C(C)(C)Oc1ccc2c(C)c(-c3ccc(Cl)cc3)c(=O)oc2c1` ?
Result string: > 100 µM (inactive)

---

system: TK-10; experiment: NCI tumour cell line growth inhibition, 48 h
The source made the active and inactive calls. No stated cut-off is given here; in the data, active = GI50 up to about 1.1 µM and inactive = higher.
observation type: GI50

Solved entries (count: 3):
COc1ccc2c(c1)c(=O)c1c(NCCN(C)C)ccc3nnn2c31 : 2.5 µM (inactive)
O=C1OCCC1C(O)C1c2ccccc2-c2ccccc21 (centres undefined) : > 100 µM (inactive)
CCOC(=O)/C(C#N)=C1/SC(C(=O)N/N=C/c2ccc(OC)cc2)=C(N)N1c1ccccc1 : > 100 µM (inactive)

Query string: So what does the record say about GI50 for COc1ccc(OC)c(NC(=O)C(=O)C(C(=O)c2ccccc2F)C2OC(=O)c3ccccc32)c1 (centres undefined) ?
Result string: > 100 µM (inactive)

---

system: A498; assay: NCI tumour cell line growth inhibition, 48 h
The source made the active and inactive calls. Rule as the data show it: active = GI50 up to about 1.1 µM and inactive = higher.
Response enum: true (1) = active, false (0) = inactive

O=C(Cc1ccccc1)NCCCN(CCCCN(CCCNC(=O)Cc1ccccc1)C(=O)OCc1ccccc1)C(=O)OCc1ccccc1 : false (0)
N#C/C(=C\NC(=S)c1ccncc1)c1nc2ccccc2s1 : false (0)
c1cc(NC2=NCCO2)c2c(c1)OCO2 : false (0)
Cc1[nH]c2ccccc2c1C(=O)/C=C/c1ccccc1O : false (0)
COc1ccc(/C=C2\CCC(C)C3=C2N=c2s/c(=C/c4cccc(Br)c4)c(=O)n2C3c2ccc(OC)c(OC)c2)cc1OC (configuration not stated) : false (0)
O=S(=O)(c1ccccc1)C(c1ccc2ccccc2n1)S(=O)(=O)c1ccccc1 : false (0)
O=C1c2cscc2C(=O)C1(O)O : false (0)
CCCC(=O)Nc1ncnc2c1ncn2C1OC2COP(=O)(O)OC2C1OC(=O)CCC (configuration not stated) : false (0)
Cc1c2c(cc3c1[nH]c1ccccc13)C=NCC2 : false (0)
Cc1ccc(NCCN(C)C)c2c(=O)c3cc(O)ccc3oc12 : false (0)

Query string: Look up the recorded call for `CC(C)NC(=O)OCc1c(COC(=O)NC(C)C)c(-c2ccc[n+](COC(=O)C3CC3)c2)n2c1CCC2` in this test.
Result string: false (0)

Query string: Look up the recorded call for COc1ccc2c(c1)CC[C@@H]1C2CC[C@]2(C)C(=O)N(CCN(C)C)C(=O)CC12 (some centres not stated) in this test.
Result string: false (0)

Query string: Look up the recorded call for `N#Cc1c(-c2ccc(Cl)cc2)cc(-c2ccc(Nc3ccnc4cc(C(F)(F)F)ccc34)cc2)[nH]c1=O` in this test.
Result string: false (0)

Query string: Look up the recorded call for `NS(=O)(=O)c1ccc(/N=N/c2cnc(O)c(O)c2)cc1` in this test.
Result string: false (0)

Query string: Look up the recorded call for `CCCCCCCCCC[C@H](O)[C@H](O)CC[C@@H](O)[C@H]1CC[C@@H]([C@H]2CC[C@H](CCCCCCC[C@@H](O)CC3=C[C@H](C)OC3=O)O2)O1` in this test.
Result string: false (0)

Query string: Look up the recorded call for `Cc1cc(/N=C/c2ccc(F)cc2)n(-c2ccccc2)n1` in this test.
Result string: false (0)

---

system: NCI-H226; assay: NCI tumour cell line growth inhibition, 48 h
Calls of active or inactive are those of the source. Cut-off read from the data, not from the text of the source: active = GI50 up to about 1.1 µM and inactive = higher.
Response enum: yes (1) (active), no (0) (inactive)

Here's what some known entries look like.
C=CCC1(CN(C)C)CC/C(=C\c2ccc(Cl)cc2)C1=O (stereo not given) : no (0)
CC(=O)OCc1ccc(O)c(C=O)c1 : no (0)
COc1cccc(C(=O)Nc2c3ccccc3nc3ccccc23)c1OC : no (0)
COc1ccc(OC)c(/C=C/c2cnnc3ccccc23)c1 : no (0)
C[C@]12CC[C@H](OCCC#N)CC1=CC[C@@H]1C2CC[C@]2(C)/C(=N/OCCC#N)CCC12 (stereo not given in full) : no (0)
O=C(CNc1ccc(Cl)cc1)Nn1c(-c2ccccc2)nc2ccccc2c1=O : no (0)
COc1ccc(-c2csc(-n3c(-c4ccccc4)nc4c(Br)cc(Br)cc4c3=O)n2)cc1 : no (0)
CC(=O)NC(CCCNC(=O)OCc1ccccc1)C(=O)NCc1ccccc1 (stereo not given) : no (0)
C=C1C(C(O)C[C@H](C)C2O[C@@]3(CCCCO3)CCC2C)O[C@@H]2CCC3(CCC(/C=C/[C@@H](C)C4CC(C)=CC5(O4)O[C@H](C[C@](C)(O)C(=O)O)CCC5O)O3)OC2[C@@H]1O (stereo not given in full) : yes (1)
O=S(=O)(Nc1nccs1)c1ccc(Nc2nc(-c3cccs3)nc3ccc(I)cc23)cc1 : no (0)

# ---- query molecule ----
Query string: Look up the recorded call for `N#Cc1sc2c(c1OC(=O)c1ccccc1)c(=O)n(-c1ccccc1)c(=S)n2-c1ccccc1` in this test.
Result string: no (0)

---

test system: RXF 393; assay: NCI tumour cell line growth inhibition, 48 h
Calls of active or inactive are those of the source. Rule as the data show it: active = GI50 up to about 1.1 µM and inactive = higher.
observation type: GI50

Solved entries (count: 5):
CCCCc1ccc(N2C(=O)c3cccnc3S2(=O)=O)cc1 : > 100 µM (inactive)
COc1ccc(C2c3cc4c(cc3OC(NNS(=O)(=O)c3ccc(C)cc3)C2C)OCO4)cc1 (stereo unspecified) : 38.6 µM (inactive)
CC(C)NC(=O)OCc1c(COC(=O)NC(C)C)c(-c2ccc[n+](COC(=O)C3CC3)c2)n2c1CCC2 : 34.2 µM (inactive)
CC(NC(=O)OC(C)(C)C)C(=O)NC(Cc1ccccc1)C(=O)NCC(=O)ON=C1CCCC1 (stereo unspecified) : > 100 µM (inactive)
COc1nc2c(c(=O)n1C)N[C@@H]1[C@@H](O)[C@H](O)CO[C@@H]1N2 : > 100 µM (inactive)

Then this compound:
Query string: So what does the record say about GI50 for CCCCCCCCCCCCCCCCCCNc1ccn(C2OC(COP(=O)(O)O)C(O)C2O)c(=O)n1 (stereo unspecified) ?
Result string: > 100 µM (inactive)
